# Target or system: AQ STING (G230A-R293Q) (Homo sapiens, UniProt Q86WV6, G230A/H232R/R293Q)
# Construct: encoded truncated human WT STING or AQ STING (amino acid residues 140-343) with N-terminal 8×His and SUMO tag; 8xHis-SUMO (N, cleaved yes); made in house; host or cells: E. coli Rosetta-gami B (DE3)
# Sequence (Q86WV6 140-343 G230A/H232R/R293Q): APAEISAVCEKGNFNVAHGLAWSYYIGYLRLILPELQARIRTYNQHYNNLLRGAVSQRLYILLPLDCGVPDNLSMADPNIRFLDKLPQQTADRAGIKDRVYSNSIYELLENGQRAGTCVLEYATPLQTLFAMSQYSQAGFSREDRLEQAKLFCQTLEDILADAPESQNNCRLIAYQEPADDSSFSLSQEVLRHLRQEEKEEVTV
# Assay: Differential Scanning Fluorimetry (DSF) with AQ STING
# Format: binding
# Condition parameters: thermal shift vs STING apoprotein; 150 μM CDN; 0.1 mg/ml protein; SYPRO Orange
Recorded endpoint: ΔTm at 150 µM (°C)
Express it in °C; write the number only.

{"Compound": "CNc1ncnc2c1ncn2[C@@H]1O[C@@H]2COP(=O)(O)OC3C(O)[C@H](n4cnc5c(N)ncnc54)O[C@@H]3OCP(=O)(O)OC2C1O (stereo partly drawn) [Compound 48]", "ΔTm at 150 µM [°C]": 4.4}
{"Compound": "Nc1ncnc2c1ccn2[C@@H]1O[C@@H]2COP(=O)(O)OC3C(O)[C@H](n4cnc5c(N)ncnc54)O[C@@H]3OCP(=O)(O)OC2C1O (stereo partly drawn) [Compound 50]", "ΔTm at 150 µM [°C]": 2}
{"Compound": "Nc1ncnc2c1ncn2[C@@H]1O[C@@H]2COCP(=O)(O)OC3C(F)[C@H](n4cnc5c(N)ncnc54)O[C@@H]3COP(=O)(O)OC2C1O (stereo partly drawn) [Compound 34]", "ΔTm at 150 µM [°C]": 4.3}
{"Compound": "Nc1ncnc2c1ncn2[C@@H]1O[C@@H]2OCP(=O)(O)OC3C(O)[C@H](n4cnc5c(N)ncnc54)O[C@@H]3COP(=O)(O)OC2C1O (stereo partly drawn) [Compound 51]", "ΔTm at 150 µM [°C]": 10.6}
{"Compound": "Nc1nc2c(nnn2[C@@H]2O[C@@H]3OCP(=O)(O)OC4C(O)[C@H](n5cnc6c(N)ncnc65)O[C@@H]4COP(=O)(O)OC3C2O)c(=O)[nH]1 (stereo partly drawn) [Compound 54]", "ΔTm at 150 µM [°C]": 12.2}

Ask: State its ΔTm at 150 µM on AQ STING (G230A-R293Q) (Homo sapiens, UniProt Q86WV6, G230A/H232R/R293Q): Nc1ncnc2c1ncn2[C@@H]1O[C@@H]2OCP(=O)(O)OC3C(O)[C@H](n4cnc5c(N)ncnc54)O[C@@H]3COP(=O)(O)OC2C1O (single isomer, unassigned) [Compound 32]
Result: 6.4

###

# Target or system: human wild type STING (WT STING) (Homo sapiens, UniProt Q86WV6, H232R)
# Sequence (Q86WV6 whole entry H232R): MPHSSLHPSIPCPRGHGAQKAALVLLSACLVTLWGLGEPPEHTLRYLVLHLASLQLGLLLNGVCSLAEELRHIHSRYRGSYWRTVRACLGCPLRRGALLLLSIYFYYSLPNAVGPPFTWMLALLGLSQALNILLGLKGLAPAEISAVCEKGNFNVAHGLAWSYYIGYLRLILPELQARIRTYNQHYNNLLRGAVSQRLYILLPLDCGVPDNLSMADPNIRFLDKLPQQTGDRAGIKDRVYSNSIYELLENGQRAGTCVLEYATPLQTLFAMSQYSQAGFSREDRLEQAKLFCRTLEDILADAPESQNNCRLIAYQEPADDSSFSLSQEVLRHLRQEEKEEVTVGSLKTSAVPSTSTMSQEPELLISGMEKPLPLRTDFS
# Assay: Digitonin assay using 293T wtSTING-FL reporter cells
# Condition parameters: 293T wtSTING-FL cells; ISRE firefly luciferase reporter; 30 min in Digitonin buffer, then 5 hours; 8-point dose-response curve
We label by threshold. Values of EC50 strictly beneath 900 nM are met. Values of 900 nM and up are not met.

Use the examples below as a reference point.
{"Compound": "CNc1ncnc2c1ncn2[C@@H]1O[C@@H]2COP(=O)(O)OC3C(O)[C@H](n4cnc5c(=O)[nH]c(N)nc54)O[C@@H]3OCP(=O)(O)OC2C1O (some centres unmarked)", "Class assignment": "met"}
{"Compound": "Nc1ncnc2c1ncn2[C@@H]1O[C@@H]2COP(=O)(O)OC3C(O)[C@H](n4cnc5c(N)ncnc54)O[C@@H]3OCP(=O)(O)OC2C1N (some centres unmarked)", "Class assignment": "not met"}
{"Compound": "Nc1ncnc2c1ncn2[C@@H]1O[C@@H]2COP(=O)(O)O[C@H]3[C@@H](O)[C@H](n4cnc5c(N)ncnc54)O[C@@H]3COP(=O)(O)O[C@H]2[C@H]1O [3′3′c-di-AMP, 3′3′-c-di-AMP, reference compound]", "Class assignment": "met"}

Continue with the next compound.
Ask: A record lists Nc1ncnc2c1ncn2[C@@H]1O[C@@H]2OCP(=O)(O)OC3C(O)[C@H](n4cnc5c(N)ncnc54)O[C@@H]3COP(=O)(S)OC2C1O (some centres unmarked) . Is its EC50 below 900 nM?
Result: not met

// provenance: patent US10966999B2
